pIC50 by entry:
STUDY_SYSTEM: Acetyl-CoA acetyltransferase, mitochondrial (Homo sapiens, UniProt P24752)
Sequence (P24752 whole entry): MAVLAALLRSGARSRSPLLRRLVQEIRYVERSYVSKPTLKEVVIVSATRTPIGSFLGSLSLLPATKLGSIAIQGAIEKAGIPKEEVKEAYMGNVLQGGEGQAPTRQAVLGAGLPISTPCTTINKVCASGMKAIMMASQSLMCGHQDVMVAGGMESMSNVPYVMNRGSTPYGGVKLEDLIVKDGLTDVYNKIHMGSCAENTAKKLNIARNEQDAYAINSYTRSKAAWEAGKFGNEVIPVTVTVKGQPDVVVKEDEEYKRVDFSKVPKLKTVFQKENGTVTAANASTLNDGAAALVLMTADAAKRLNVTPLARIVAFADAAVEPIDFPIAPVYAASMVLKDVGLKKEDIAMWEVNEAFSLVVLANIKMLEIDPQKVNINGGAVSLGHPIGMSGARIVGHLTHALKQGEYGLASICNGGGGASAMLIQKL
pIC50: −log10 of the molar value.

# COMPOUND, pIC50
data = [
    ("O=C(/C=C/c1ccc(O)c(O)c1)Nc1ccc(OCCc2ccccc2)cc1 [US20250248955, Compound M4]", 3.95),
    ("COCOc1ccc(/C=C/C(=O)Nc2ccc(OCCc3ccc(OC)c(OC)c3)cc2)cc1OCOC [US20250248955, Compound M16]", 3.76),
    ("COCOc1ccc(/C=C/C(=O)Nc2ccc(OCCc3ccc(C)cc3)cc2)cc1OCOC [US20250248955, Compound M14]", 3.95),
    ("COCOc1ccc(/C=C/C(=O)Nc2ccc(OCCc3ccc(F)cc3)cc2)cc1OCOC [US20250248955, Compound M13]", 3.82),
]
